kon values for the binders below.
Target: T1, Dimeric human CD48-mFc (human)
T1 construct: the whole entry is the construct; also called hCD48-mFc
T1 chain: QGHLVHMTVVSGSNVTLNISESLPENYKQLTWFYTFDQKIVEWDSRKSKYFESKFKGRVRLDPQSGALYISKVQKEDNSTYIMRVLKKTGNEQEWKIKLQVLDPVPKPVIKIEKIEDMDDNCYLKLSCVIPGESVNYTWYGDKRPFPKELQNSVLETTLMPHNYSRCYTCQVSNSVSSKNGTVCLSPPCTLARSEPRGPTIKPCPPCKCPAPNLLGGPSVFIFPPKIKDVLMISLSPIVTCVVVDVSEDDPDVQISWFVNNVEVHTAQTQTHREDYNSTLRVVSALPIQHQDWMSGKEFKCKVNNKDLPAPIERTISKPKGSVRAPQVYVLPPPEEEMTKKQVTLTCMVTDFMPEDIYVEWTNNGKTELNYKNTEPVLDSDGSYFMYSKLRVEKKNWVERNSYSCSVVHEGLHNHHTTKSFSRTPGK
Assay: SPR (Biacore), antibody captured by anti-Fc, CD48 in solution, 37 C
Please reply with the bare figure in M⁻¹ s⁻¹ and do not write the unit itself.

Ask: Query: kon; subject: H2M1713N (antibody, mouse IgG2, V domains shown, Human variable domains, mouse IgG2 Fc (H2M)) VH: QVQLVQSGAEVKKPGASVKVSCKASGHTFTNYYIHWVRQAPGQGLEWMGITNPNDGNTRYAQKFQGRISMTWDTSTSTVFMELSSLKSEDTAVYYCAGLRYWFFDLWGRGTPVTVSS VL: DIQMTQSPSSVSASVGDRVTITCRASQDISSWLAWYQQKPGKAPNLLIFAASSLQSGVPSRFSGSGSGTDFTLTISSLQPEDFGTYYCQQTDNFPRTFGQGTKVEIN
Reply: 1.25e+06

Ask: Query: kon; subject: H4H1713N (antibody, V domains shown, Human IgG4 Fc (H4H)) VH: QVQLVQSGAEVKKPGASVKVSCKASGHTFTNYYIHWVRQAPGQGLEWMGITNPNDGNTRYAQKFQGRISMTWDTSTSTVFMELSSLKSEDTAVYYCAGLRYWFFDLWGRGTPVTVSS VL: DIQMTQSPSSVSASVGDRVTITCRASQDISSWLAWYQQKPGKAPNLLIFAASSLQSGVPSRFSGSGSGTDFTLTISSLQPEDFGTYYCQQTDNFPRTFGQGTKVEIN
Reply: 1.26e+06

Ask: Query: kon; subject: H2M1712N (antibody, mouse IgG2, V domains shown, Human variable domains, mouse IgG2 Fc (H2M)) VH: QIQLVQSGAEMKRPGTSVKVSCKASGYTFSSYGINWVRQAPGQGLEWMGWISAYNGDTNYAQKLQGRVTMTTDTSTTTAYMEVRSLRSDDTAVYYCARFLTGTKDLYYGMDVWGQGTTVTVSS VL: DIQMTQSPSSLSASVGDRVTITCQASQDISNFLNWYQQKPGKAPDLLINDASILETGVPSRFSGSGSGTDFTLTINSLQPEDIATYYCQQYDNLPLTFGGGTKVEIK
Reply: 2.72e+06

Ask: Query: kon; subject: H2M1811N (antibody, mouse IgG2, V domains shown, Human variable domains, mouse IgG2 Fc (H2M)) VH: QVQLVQSGAEAREPGASVRVSCKASGYTFTDYFIHWVRQAPGQGLEWMGWINPNSGATNFAQKFQGRVTMTRDTSLITAYMDLSRLKSDDAAVFYCARDVDGSGWYLDFWGQGTLVTVSS VL: EIVLTQSPATLSLSPGERATLSCRASQSVSIYLAWYQQKPGQAPRLLIYDASNRATGIPARFSGSGSGTDFTLTISRLEPEDFAVYYCQQRSDWPPSITFGQGTRLEIK
Reply: 265000
